src = patent US8501953B2

Here the recorded AC50 is given for each entry.
biological target: PKM2 (Homo sapiens, UniProt P14618); assay: PKM2 Assay (activation; LDH-coupled, NADH absorbance at 340 nm); type: biochemical; settings: PKM2 50 ng/well, ADP 0.7 mM, PEP 0.15 mM, no FBP in Reaction Mix
Sequence (P14618 whole entry): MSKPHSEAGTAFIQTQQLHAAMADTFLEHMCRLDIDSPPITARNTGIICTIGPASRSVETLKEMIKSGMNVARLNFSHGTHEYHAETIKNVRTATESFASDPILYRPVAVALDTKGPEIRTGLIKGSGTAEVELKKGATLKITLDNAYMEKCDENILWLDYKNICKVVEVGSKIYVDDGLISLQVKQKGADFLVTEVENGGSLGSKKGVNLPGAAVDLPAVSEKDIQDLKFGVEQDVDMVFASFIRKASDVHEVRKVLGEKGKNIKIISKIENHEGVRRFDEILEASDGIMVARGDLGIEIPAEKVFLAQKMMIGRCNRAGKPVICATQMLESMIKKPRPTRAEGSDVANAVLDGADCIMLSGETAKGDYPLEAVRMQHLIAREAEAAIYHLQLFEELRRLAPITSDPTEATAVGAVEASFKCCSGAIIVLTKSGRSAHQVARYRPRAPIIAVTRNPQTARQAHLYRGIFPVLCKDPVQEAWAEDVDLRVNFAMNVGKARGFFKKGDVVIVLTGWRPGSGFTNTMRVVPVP
From the text: […]

MOLECULE: Cn1c(=O)oc2cc(S(=O)(=O)Nc3ccc4c(c3)OCCO4)ccc21
AC50: 1 to 10 µM
//
MOLECULE: COc1ccc(Cl)cc1S(=O)(=O)Nc1ccc2c(c1)sc(=O)n2C
AC50: 10 to 50 µM
//
MOLECULE: COc1ccc(Cl)cc1S(=O)(=O)Nc1cc2c(cc1Cl)oc(=O)n2C
AC50: 1 to 10 µM
//
MOLECULE: Cn1c(=O)sc2cc(S(=O)(=O)Nc3cccc4ncccc34)ccc21
AC50: 1 to 10 µM
//
MOLECULE: Cn1c(=O)oc2cc(F)c(S(=O)(=O)Nc3ccc(F)cc3)cc21
AC50: 1 to 10 µM

Given the entry Cn1c(=O)oc2cc(Cl)c(S(=O)(=O)Nc3ccc(Cl)cc3)cc21 , report its measured AC50. 10 to 50 µM

Can you check Cc1cc(NS(=O)(=O)c2cc(C)c3c(c2)oc(=O)n3CCN2CCOCC2)ccc1F next? 1 to 10 µM

Can you check Cn1c(=O)oc2cc(F)c(S(=O)(=O)Nc3ccccc3)cc21 [drawing 56] next? < 1 µM

Can you check Cn1c(=O)oc2cc(F)c(S(=O)(=O)Nc3ccccc3)cc21 [drawing 242] next? 1 to 10 µM

Can you check COCCn1c(=O)oc2cc(S(=O)(=O)Nc3ccc(F)c(Cl)c3)cc(C)c21 next? < 1 µM

Can you check Cc1cc(NS(=O)(=O)c2ccc3c(c2)sc(=O)n3C)ccc1F next? < 1 µM

---

biological target: UniProt:P14618; assay: PKM2 Assay (activation; LDH-coupled, NADH absorbance at 340 nm); type: biochemical; details: PKM2 50 ng/well, ADP 0.7 mM, PEP 0.15 mM, no FBP in Reaction Mix
Here the recorded AC50 is given for each entry.

# annotated cases, reported AC50 shown
COMPOUND: COc1ccc(Cl)cc1S(=O)(=O)Nc1ccc2sc(=O)[nH]c2c1
TARGET: UniProt:P14618
AC50: 1000 to 10000 nM
//
COMPOUND: Cn1c(=O)oc2cc(F)c(S(=O)(=O)N3CCN(S(=O)(=O)c4c(F)cccc4F)CC3)cc21
TARGET: UniProt:P14618
AC50: < 1000 nM
//
COMPOUND: CCc1cccc(NS(=O)(=O)c2ccc3c(c2)oc(=O)n3C)c1
TARGET: UniProt:P14618
AC50: < 1000 nM
//
COMPOUND: Cc1cc(NS(=O)(=O)c2cc3c(cc2C)oc(=O)n3C)ccc1Cl
TARGET: UniProt:P14618
AC50: < 1000 nM

Given the entry CCn1c(=O)oc2cc(S(=O)(=O)Nc3ccccc3Cl)c(C)cc21 , report its measured AC50. 1000 to 10000 nM

Can you check COc1ccc(Cl)cc1S(=O)(=O)Nc1ccc2sc(=O)n(C)c2c1 next? 10000 to 50000 nM

Can you check Cc1cc(C)cc(NS(=O)(=O)c2ccc3oc(=O)n(C)c3c2)c1 next? < 1000 nM

Can you check Cc1cc(C)cc(NS(=O)(=O)c2cc3sc(=O)n(C)c3cc2Cl)c1 next? < 1000 nM

Can you check Cc1cc(C)cc(NS(=O)(=O)c2ccc3c(c2)sc(=O)n3C)c1 next? < 1000 nM

---

target: PKM2 (Homo sapiens, UniProt P14618); assay: PKM2 Assay (activation; LDH-coupled, NADH absorbance at 340 nm); type: biochemical; settings: PKM2 50 ng/well, ADP 0.7 mM, PEP 0.15 mM, no FBP in Reaction Mix
PROPERTY LABEL: AC50

# annotated cases, reported AC50 shown
COMPOUND: Cc1cc2oc(=O)n(C)c2cc1S(=O)(=O)Nc1ccc(Cl)c(C(F)(F)F)c1
RESULT: 1 to 10 µM
--
COMPOUND: Cn1c(=O)oc2cc(S(=O)(=O)Nc3ccc4ncn(S(=O)(=O)c5cccc6c5oc(=O)n6C)c4c3)ccc21
RESULT: 1 to 10 µM
--
COMPOUND: COc1ccc(S(=O)(=O)Nc2cc3[nH]c(=O)oc3cc2Cl)cc1OC
RESULT: > 100 µM
--
COMPOUND: COc1ccc(Cl)cc1NS(=O)(=O)c1cc2c(cc1C)oc(=O)n2C
RESULT: 1 to 10 µM

Next item in the queue.
Given the entry O=c1[nH]c2cc(NS(=O)(=O)c3cccs3)c(Cl)cc2o1 , report its measured AC50. 1 to 10 µM
